Taken from patent US8546608B2.

# Assayed System: proteasome in Molt-4 cells (human leukemia) (Homo sapiens, UniProt P20618+P28074)
# Sequence (P28074 60-263): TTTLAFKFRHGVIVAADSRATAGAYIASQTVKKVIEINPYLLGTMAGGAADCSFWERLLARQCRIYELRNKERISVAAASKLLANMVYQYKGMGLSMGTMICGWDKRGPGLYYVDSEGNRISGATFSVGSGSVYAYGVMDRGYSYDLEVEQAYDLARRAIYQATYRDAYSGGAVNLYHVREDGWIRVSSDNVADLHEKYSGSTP
# Sequence (P20618 29-241): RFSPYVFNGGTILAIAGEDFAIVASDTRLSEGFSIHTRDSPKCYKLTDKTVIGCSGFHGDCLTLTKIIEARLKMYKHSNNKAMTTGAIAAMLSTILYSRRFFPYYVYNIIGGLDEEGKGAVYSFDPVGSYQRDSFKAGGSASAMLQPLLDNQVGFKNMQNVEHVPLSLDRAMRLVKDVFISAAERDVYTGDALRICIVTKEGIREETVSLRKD
# Format: cell-based
# Details: assay of Example E, inhibition of MOLT4; read-out: MOLT4 (EC50)
pEC50: −log10 of the molar value.
Measurement Type: pEC50

>>> df
                                smiles_repr                            assayed_system    test_value
0  CCCCc1ccc(C(=O)N[C@@H](CNC(=O)Cc2ccc(OC)c(OC)c2)C(=O)N[C@@H](CC(C)C)B2O[C@@H]3C[C@@H]4C[C@@H](C4(C)C)[C@]3(C)O2)cc1  proteasome in Molt-4 cells (human leukemia) (Homo sapiens, UniProt P20618+P28074)        > 6.70
1  CC(C)C[C@H](NC(=O)[C@@H](NC(=O)c1cnccn1)[C@@H](C)O)B1O[C@@H]2C[C@@H]3C[C@@H](C3(C)C)[C@]2(C)O1  proteasome in Molt-4 cells (human leukemia) (Homo sapiens, UniProt P20618+P28074)        > 6.70
2  COc1ccc(F)cc1C(=O)N[C@@H](CCCNC(=N)N[N+](=O)[O-])C(=O)N[C@@H](CC(C)C)B(O)O  proteasome in Molt-4 cells (human leukemia) (Homo sapiens, UniProt P20618+P28074)        < 5.00
3  CCCCc1ccc(C(=O)N[C@@H](CNC(=O)c2ccc(S(N)(=O)=O)cc2)C(=O)N[C@@H](CC(C)C)B(O)O)cc1  proteasome in Molt-4 cells (human leukemia) (Homo sapiens, UniProt P20618+P28074)  5.70 to 6.70
4  CC(C)C[C@H](NC(=O)[C@H](CCCNC(=N)N[N+](=O)[O-])NC(=O)COc1ccc(Br)cc1)B(O)O  proteasome in Molt-4 cells (human leukemia) (Homo sapiens, UniProt P20618+P28074)  5.00 to 5.70

Now let's try a different one.
Request: Item under review: CC(C)C[C@H](NC(=O)[C@H](CCCNC(=N)N[N+](=O)[O-])NC(=O)COc1ccc2ccccc2c1)B(O)O . Reported pEC50?
Result: 5.70 to 6.70

###

# Assayed System: 20S Human Erythrocyte Proteasome (HEP) (Homo sapiens, UniProt P20618+P28074)
# Construct: 20S Human Erythrocyte Proteasome (HEP), purchased from Immatics Biotechnologies Inc
# Protocol Summary: Chymotrypsin-like activity of 20S Human Erythrocyte Proteasome (HEP), IC50 determination
# Details: assay of Example C, inhibition of HEP
pIC50: −log10 of the molar value. Counter-ions that a name gives are not always drawn.
Let's look at some compounds and their measured pIC50.

Compound	Assayed System	pIC50
CSCCC(=O)N[C@@H](CCCNC(=N)N[N+](=O)[O-])C(=O)N[C@@H](CC(C)C)B1O[C@@H]2C[C@@H]3C[C@@H](C3(C)C)[C@]2(C)O1 [D.3.138]	20S Human Erythrocyte Proteasome (HEP) (Homo sapiens, UniProt P20618+P28074)	> 7.00
CC(C)C[C@H](NC(=O)[C@H](CNC(=O)c1ccc(-c2ccccc2)cc1)NC(=O)c1ccc(Oc2ccccc2)cc1)B(O)O [E.5.34]	20S Human Erythrocyte Proteasome (HEP) (Homo sapiens, UniProt P20618+P28074)	> 8.00
CC(C)C[C@H](NC(=O)[C@H](CCCNC(=N)N[N+](=O)[O-])NC(=O)CCCCCO)B1O[C@@H]2C[C@@H]3C[C@@H](C3(C)C)[C@]2(C)O1 [D.3.192]	20S Human Erythrocyte Proteasome (HEP) (Homo sapiens, UniProt P20618+P28074)	> 7.00
CCOc1ccc(C(=O)N[C@@H](CCCNC(=N)N[N+](=O)[O-])C(=O)N[C@@H](CC(C)C)B(O)O)cc1 [D.7.31]	20S Human Erythrocyte Proteasome (HEP) (Homo sapiens, UniProt P20618+P28074)	> 8.00
CCCCCCCCCC(=O)N[C@@H](CC(N)=O)C(=O)N[C@@H](CC(C)C)B(O)O [E.1.27]	20S Human Erythrocyte Proteasome (HEP) (Homo sapiens, UniProt P20618+P28074)	> 8.00

Request: Item under review: COc1ccc(CCCC(=O)N[C@@H](CCCNC(=N)N[N+](=O)[O-])C(=O)N[C@@H](CC(C)C)B2O[C@@H]3C[C@@H]4C[C@@H](C4(C)C)[C@]3(C)O2)cc1 [D.3.50] . Reported pIC50?
Result: > 8.00

Request: Continue with COCCOCCOCC(=O)NCC(=O)N[C@@H](CC(C)C)B1O[C@@H]2C[C@@H]3C[C@@H](C3(C)C)[C@]2(C)O1 [D.2.8]
Result: > 7.00

Request: Continue with CCCCc1ccc(C(=O)N[C@@H](CNS(=O)(=O)c2ccc(F)cc2)C(=O)N[C@@H](CC(C)C)B2O[C@@H]3C[C@@H]4C[C@@H](C4(C)C)[C@]3(C)O2)cc1 [D.19]
Result: > 8.00

Request: Continue with CCCCCCCCCC(=O)N[C@@H](CCCNC(=N)N[N+](=O)[O-])C(=O)N[C@@H](CC(C)C)B1O[C@H](C2CCCCC2)[C@@H](C2CCCCC2)O1 [F.1]
Result: > 8.00

Request: Continue with CC(C)C[C@H](NC(=O)[C@H](CCCNC(=N)N[N+](=O)[O-])NC(=O)CSc1ncccn1)B(O)O [E.2.54]
Result: > 8.00

Request: Continue with CC(C)C[C@H](NC(=O)[C@H](CCCNC(=N)N[N+](=O)[O-])NC(=O)CC1CCCCCC1)B(O)O [E.2.29]
Result: > 8.00

Request: Continue with Cc1nc(C)c(C(=O)N[C@@H](CCCNC(=N)N[N+](=O)[O-])C(=O)N[C@@H](CC(C)C)B(O)O)s1 [E.2.27]
Result: > 8.00

Request: Continue with COCCOCC(=O)N[C@@H](CCCNC(=N)N[N+](=O)[O-])C(=O)N[C@@H](CC(C)C)B(O)O [E.1.6, HCl salt]
Result: > 7.00

Request: Continue with CC(C)C[C@H](NC(=O)[C@H](CCCNC(=N)N[N+](=O)[O-])NC(=O)Cn1cnnn1)B(O)O [E.2.53]
Result: > 7.00

Request: Continue with CCCCCCCCCC(=O)N[C@@H](CNS(=O)(=O)c1ccc(F)cc1)C(=O)N[C@@H](CC(C)C)B(O)O [E.5.12]
Result: > 8.00

Request: Continue with CC(C)C[C@H](NC(=O)[C@H](CCCNC(=N)N[N+](=O)[O-])NC(=O)COc1ccc(C(C)C)cc1)B(O)O [D.7.5]
Result: > 8.00

Request: Continue with CCCCc1ccc(C(=O)N[C@@H](CNC(=O)c2cccn2C)C(=O)N[C@@H](CC(C)C)B(O)O)cc1 [E.5.16]
Result: > 8.00

Request: Continue with CCCCc1ccc(C(=O)N[C@@H](CNS(C)(=O)=O)C(=O)N[C@@H](CC(C)C)B2O[C@@H]3C[C@@H]4C[C@@H](C4(C)C)[C@]3(C)O2)cc1 [D.24.4]
Result: > 8.00

Request: Continue with Cc1ccc(CSCCC(=O)N[C@@H](CCCNC(=N)N[N+](=O)[O-])C(=O)N[C@@H](CC(C)C)B(O)O)cc1 [D.7.26]
Result: > 8.00

Request: Continue with CCCCCCCNC(=O)N[C@@H](CCCNC(=N)N[N+](=O)[O-])C(=O)N[C@@H](CC(C)C)B1O[C@@H]2C[C@@H]3C[C@@H](C3(C)C)[C@]2(C)O1 [D.6.3]
Result: > 8.00

Request: Continue with CCCCc1ccc(C(=O)N[C@@H](CNC(=O)c2cnccn2)C(=O)N[C@@H](CC(C)C)B2O[C@@H]3C[C@@H]4C[C@@H](C4(C)C)[C@]3(C)O2)cc1 [D.18]
Result: > 8.00

Request: Continue with CC(C)C[C@H](NC(=O)[C@H](CCCNC(=N)N[N+](=O)[O-])NC(=O)CCCCCCCCC#N)B(O)O [D.7.61]
Result: > 8.00
